# assayedTarget: EGFR L858R/T790M/C797S (Homo sapiens, UniProt P00533, C797S/L858R/T790M)
# Construct: expressed in transfected cells; host or cells: BaF3-LTC
# Sequence (P00533 25-1210 T790M/C797S/L858R): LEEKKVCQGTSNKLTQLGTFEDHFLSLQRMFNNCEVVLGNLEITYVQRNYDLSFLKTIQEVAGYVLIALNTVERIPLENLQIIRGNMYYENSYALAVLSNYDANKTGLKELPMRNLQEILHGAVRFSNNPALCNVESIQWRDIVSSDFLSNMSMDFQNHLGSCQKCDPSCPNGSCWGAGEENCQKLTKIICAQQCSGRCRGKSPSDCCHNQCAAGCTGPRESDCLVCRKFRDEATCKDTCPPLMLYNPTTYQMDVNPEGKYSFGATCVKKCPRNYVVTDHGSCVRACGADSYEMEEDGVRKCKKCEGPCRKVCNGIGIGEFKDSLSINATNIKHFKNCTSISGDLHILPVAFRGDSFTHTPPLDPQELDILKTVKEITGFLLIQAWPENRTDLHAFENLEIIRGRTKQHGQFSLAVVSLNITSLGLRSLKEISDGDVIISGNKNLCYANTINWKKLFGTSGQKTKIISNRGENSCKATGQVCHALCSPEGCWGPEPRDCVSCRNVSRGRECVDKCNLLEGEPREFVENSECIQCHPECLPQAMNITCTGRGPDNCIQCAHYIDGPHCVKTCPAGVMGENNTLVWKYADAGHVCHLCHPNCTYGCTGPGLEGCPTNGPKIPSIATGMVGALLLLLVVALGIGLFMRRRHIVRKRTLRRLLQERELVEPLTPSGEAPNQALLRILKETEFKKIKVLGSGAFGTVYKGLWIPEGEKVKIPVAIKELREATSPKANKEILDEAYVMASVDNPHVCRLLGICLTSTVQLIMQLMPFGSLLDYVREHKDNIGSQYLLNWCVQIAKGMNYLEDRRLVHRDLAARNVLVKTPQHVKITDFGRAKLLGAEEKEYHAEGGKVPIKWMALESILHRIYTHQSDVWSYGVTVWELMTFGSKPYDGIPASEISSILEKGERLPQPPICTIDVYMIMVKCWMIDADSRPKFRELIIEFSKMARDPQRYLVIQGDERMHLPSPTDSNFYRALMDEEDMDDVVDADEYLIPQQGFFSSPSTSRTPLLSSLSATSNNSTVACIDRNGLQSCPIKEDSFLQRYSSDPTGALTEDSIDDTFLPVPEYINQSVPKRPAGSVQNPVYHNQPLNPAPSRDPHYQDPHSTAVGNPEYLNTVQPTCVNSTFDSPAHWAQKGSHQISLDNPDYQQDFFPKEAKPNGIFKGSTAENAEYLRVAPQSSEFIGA
# methodSummary: EGFR degradation HTRF assay in BaF3-LTC cells
# Format: cell-based
# measurementSetup: BaF3-LTC (L858R/T790M/C797S), maximum percentage of inhibition (degradation); read-out: BaF3-LTC Dmax (%)
quantity: Dmax (%)

compound=CCOc1cc(N2CCC(N3CCN(C(=O)[C@H]4CN(c5cc(F)c([C@H]6CCC(=O)NC6=O)c(F)c5)CC4(C)C)CC3)CC2)c(CC)cc1Nc1ncc(Br)c(Nc2ccc3nc(C)ccc3c2P(C)(C)=O)n1 quantity=Dmax resultvalue=96.2
compound="CCOc1cc(N2CCC(N3CCN(CCc4c(F)ccc5c4n(C)c(=O)n5C4CCC(=O)NC4=O)CC3)CC2)c(CC)cc1Nc1ncc(Br)c(Nc2ccc3nc(CC)ncc3c2P(C)(C)=O)n1 (stereo not shown)" quantity=Dmax resultvalue=97
compound="CCOc1cc(N2CCC(N3CCN(CCc4ccc(F)c5c4oc(=O)n5C4CCC(=O)NC4=O)CC3)CC2)c(CC)cc1Nc1ncc(Br)c(Nc2ccc3nc(CC)ccc3c2P(C)(C)=O)n1 (stereo not shown)" quantity=Dmax resultvalue=75.1
compound=CCOc1cc(N2CCC(N3CCN(CCc4cc(F)c([C@H]5CCC(=O)NC5=O)c(F)c4)CC3)CC2)c(CC)cc1Nc1ncc(Br)c(Nc2ccc3c(=O)n(C)ncc3c2P(C)(C)=O)n1 quantity=Dmax resultvalue=96.7
compound=CCc1ccc2c(P(C)(C)=O)c(Nc3nc(Nc4cc(CC)c(N5CCC(N6CCN(C(=O)C7CN(c8cc(F)c([C@H]9CCC(=O)NC9=O)c(F)c8)C7)CC6)CC5)cc4OC)ncc3Br)ccc2n1 quantity=Dmax resultvalue=98.6
compound="CCOc1cc(N2CCC(N3CCN(CCc4cccc5c4n(CC)c(=O)n5C4CCC(=O)NC4=O)CC3)CC2)c(CC)cc1Nc1ncc(Br)c(Nc2ccc3nc(CC)ncc3c2P(C)(C)=O)n1 (stereo not shown)" quantity=Dmax resultvalue=97.7
compound=CCc1cc(Nc2ncc(Br)c(Nc3ccc4nc(C)c(F)cc4c3P(C)(C)=O)n2)c(OC)cc1N1CCC(N2CCN(C(=O)[C@H]3CN(c4cc(F)c([C@H]5CCC(=O)NC5=O)c(F)c4)CC3(C)C)CC2)CC1 quantity=Dmax resultvalue=92.2
compound="CCc1ccc2c(P(C)(C)=O)c(Nc3nc(Nc4cc(C)c(N5CCC(N6CCN(CCc7cccc8c7n(C)c(=O)n8C7CCC(=O)NC7=O)CC6)CC5)cc4OC4CC4)ncc3Br)ccc2n1 (stereo not shown)" quantity=Dmax resultvalue=95.6
compound=CCc1ccc2c(P(C)(C)=O)c(Nc3nc(Nc4cc(CC)c(N5CCC(N6CCN(C(=O)[C@@H]7CCN(c8cc(F)c([C@H]9CCC(=O)NC9=O)c(F)c8)C7)CC6)CC5)cc4OC)ncc3Br)ccc2n1 quantity=Dmax resultvalue=98.6
compound=CCc1ncc2c(P(C)(C)=O)c(Nc3nc(Nc4cc(CC)c(N5CCC(N6CCN(CCc7cc(F)c([C@H]8CCC(=O)NC8=O)c(F)c7)CC6)CC5)cc4OC)ncc3Br)ccc2n1 quantity=Dmax resultvalue=85.9
